- Species on record: Bos taurus
- assayDetails: Inhibition of bovine heart mitochondrial NADH oxidase complex I/III/IV assessed as remaining activity at 10 uM by spectrophotometry relative to untreated control
Each record here notes measured Activity.

| smilesNotation | Activity, % |
| --- | --- |
| CCCCCCCCCCCCCCCCc1nc(N2CCC2)c(C)c(C)c1O | 95 |
| CCCCCCCCCCCCCCCCCCCc1nc(N(C)C)c(C)c(C)c1O | 85 |
| CCCCCCCCCCCCCCCCCCCc1c(C)c(N(C)C)nc(C)c1O | 81 |
| CCCCCCCCCCCCCCCCc1c(C)c(N(C)C)nc(C)c1O | 86 |
| CCCCCCCCCCCCCCCCc1c(C)c(N2CCC2)nc(C)c1O | 79 |
| CCCCCCCCCCc1nc(N(C)C)c(C)c(C)c1O | 13 |

----------
Each record here notes measured viability at 0.1 µM.
- Tested on: Lymphocyte
- assayDetails: Cytoprotective activity in human lymphocytes obtained from Leigh's syndrome patient assessed as viable cells at 0.1 uM after 16 hrs by trypan blue exclusion assay
- Assay type: functional
- studyConditions: read-out: Activity
parameterMeasured: viability at 0.1 µM (%)

| smilesNotation | testedTarget | valueMeasured |
| --- | --- | --- |
| CCCCCCCCCCCCCCCCCCCc1c(C)c(N(C)C)nc(C)c1O | Lymphocyte | 8 |
| CCCCCCCCCCCCCCCCCCCc1nc(N(C)C)c(C)c(C)c1O | Lymphocyte | 4 |
| CCCCCCCCCCCCCCCCc1c(C)c(N2CCC2)nc(C)c1O | Lymphocyte | 18 |
| CCCCCCCCCCc1nc(N(C)C)c(C)c(C)c1O | Lymphocyte | 6 |
| CCCCCCCCCCCCCCCCc1nc(N2CCC2)c(C)c(C)c1O | Lymphocyte | 13 |
| Cc1c(N(C)C)nc(CCCCCCCCCCO)c(O)c1C | Lymphocyte | 20 |
| CCCCCCCCCCCCCCCCc1c(C)c(N(C)C)nc(C)c1O | Lymphocyte | 11 |
| CCCCCCCCCCCCCCCCc1nc(N(C)C)c(C)c(C)c1O | Lymphocyte | 29 |
| CCCCCCCCCCc1c(C)c(N(C)C)nc(C)c1O | Lymphocyte | 19 |

----------
- Species: Bos taurus
- assayDetails: Inhibition of bovine heart mitochondrial NADH oxidase complex I/III/IV assessed as remaining activity at 1 uM by spectrophotometry relative to untreated control

| smilesNotation | Activity [%] |
| --- | --- |
| CCCCCCCCCCc1nc(N(C)C)c(C)c(C)c1O | 35 |
| CCCCCCCCCCCCCCCCc1nc(N2CCC2)c(C)c(C)c1O | 93 |
| CCCCCCCCCCCCCCCCCCCc1nc(N(C)C)c(C)c(C)c1O | 93 |
| CCCCCCCCCCCCCCCCc1c(C)c(N(C)C)nc(C)c1O | 95 |
| CCCCCCCCCCCCCCCCCCCc1c(C)c(N(C)C)nc(C)c1O | 98 |
| CCCCCCCCCCc1c(C)c(N(C)C)nc(C)c1O | 49 |
| CCCCCCCCCCCCCCCCc1nc(N(C)C)c(C)c(C)c1O | 98 |
| CCCCCCCCCCCCCCCCc1c(C)c(N2CCC2)nc(C)c1O | 95 |
| Cc1c(N(C)C)nc(CCCCCCCCCCO)c(O)c1C | 27 |

From: ChEMBL document CHEMBL3352113
